Experiment: folding enthalpy; higher = less favourable; fluorescence melt of hairpins on a sequencing array, two-state fit
Test Settings: sodium 0.088 M
Class MET: folding enthalpy at least -30 kcal/mol. Class NOT MET: folding enthalpy below -30 kcal/mol.

[
  {
    "Sequence Data": "GCACAACGAAAGTTTTGC (((.(((....))).)))",
    "Assigned Class": "NOT MET"
  },
  {
    "Sequence Data": "GTAGCACCGAAAGGTTAC (((..(((....))))))",
    "Assigned Class": "MET"
  },
  {
    "Sequence Data": "GGCATTGGAAACGATGTC (.(((.(....).))).)",
    "Assigned Class": "MET"
  },
  {
    "Sequence Data": "GGCTAGGGAAACTTAGCC (((((.(....).)))))",
    "Assigned Class": "NOT MET"
  },
  {
    "Sequence Data": "GATCGGACTTCCGATC ((((((....))))))",
    "Assigned Class": "NOT MET"
  }
]

Exercise: Check if folding enthalpy >= -30 kcal/mol (inclusive). Item: GTGAGCGAAAGCTGGCAC ((((((....)))..)))
Key: MET

Exercise: Check if folding enthalpy >= -30 kcal/mol (inclusive). Item: GCAGAACGAAAGTTATGC (((.(((....))).)))
Key: NOT MET

Exercise: Check if folding enthalpy >= -30 kcal/mol (inclusive). Item: GGTGTTGGAAACAGTACC (((..((....))..)))
Key: MET

* * *

Recorded folding enthalpy, one value per entry.
Experiment: folding enthalpy; higher = less favourable; fluorescence melt of hairpins on a sequencing array, two-state fit
Test Settings: sodium 0.088 M
A number alone suffices; assume kcal/mol.

// known answers, use as guide
[
  {
    "Sequence Data": "GCGACCGAAAGGTACGC ((((((....))).)))",
    "folding enthalpy [kcal/mol]": -23.8
  },
  {
    "Sequence Data": "GTAGCGGGAAACCGTTAC (((.(((....))).)))",
    "folding enthalpy [kcal/mol]": -30.2
  }
]

folding enthalpy in this record for CGACCGGAAACGGGTCG ((((((....))).))) : -32.4

folding enthalpy in this record for GGCCGTTCGAAAGAAGCC (((..(((....)))))) : -13.8

folding enthalpy in this record for GAACGAGGAAACTTGTTC ((((.((....)).)))) : -28.7

folding enthalpy in this record for GCTGGGCCGAAAGGCAGC (((..(((....)))))) : -13.3

folding enthalpy in this record for GCGCCGCGAAAGCAACGC (((..((....))..))) : -18.1

folding enthalpy in this record for GATCCCTTAAGGGATC ((((((....)))))) : -39.4

folding enthalpy in this record for GTTGATGAAAATCAAC ((((((....)))))) : -33.9

folding enthalpy in this record for GCAGCCGAAAGGCTATGC ((((((....)))..))) : -14

folding enthalpy in this record for GATCTGAAGCCAGATC ((((((....)))))) : -33.2

folding enthalpy in this record for GTCTGAGGAAACTCGGAC (((.(((....))).))) : -36.2
